Give measured Percent Effect for each item. Keep answers brief.
TESTED_SYSTEM: Ubiquitin-activating enzyme e1, putative (Leishmania donovani (strain BPK282A1)) (UniProt E9BSI1)
Sequence (whole entry): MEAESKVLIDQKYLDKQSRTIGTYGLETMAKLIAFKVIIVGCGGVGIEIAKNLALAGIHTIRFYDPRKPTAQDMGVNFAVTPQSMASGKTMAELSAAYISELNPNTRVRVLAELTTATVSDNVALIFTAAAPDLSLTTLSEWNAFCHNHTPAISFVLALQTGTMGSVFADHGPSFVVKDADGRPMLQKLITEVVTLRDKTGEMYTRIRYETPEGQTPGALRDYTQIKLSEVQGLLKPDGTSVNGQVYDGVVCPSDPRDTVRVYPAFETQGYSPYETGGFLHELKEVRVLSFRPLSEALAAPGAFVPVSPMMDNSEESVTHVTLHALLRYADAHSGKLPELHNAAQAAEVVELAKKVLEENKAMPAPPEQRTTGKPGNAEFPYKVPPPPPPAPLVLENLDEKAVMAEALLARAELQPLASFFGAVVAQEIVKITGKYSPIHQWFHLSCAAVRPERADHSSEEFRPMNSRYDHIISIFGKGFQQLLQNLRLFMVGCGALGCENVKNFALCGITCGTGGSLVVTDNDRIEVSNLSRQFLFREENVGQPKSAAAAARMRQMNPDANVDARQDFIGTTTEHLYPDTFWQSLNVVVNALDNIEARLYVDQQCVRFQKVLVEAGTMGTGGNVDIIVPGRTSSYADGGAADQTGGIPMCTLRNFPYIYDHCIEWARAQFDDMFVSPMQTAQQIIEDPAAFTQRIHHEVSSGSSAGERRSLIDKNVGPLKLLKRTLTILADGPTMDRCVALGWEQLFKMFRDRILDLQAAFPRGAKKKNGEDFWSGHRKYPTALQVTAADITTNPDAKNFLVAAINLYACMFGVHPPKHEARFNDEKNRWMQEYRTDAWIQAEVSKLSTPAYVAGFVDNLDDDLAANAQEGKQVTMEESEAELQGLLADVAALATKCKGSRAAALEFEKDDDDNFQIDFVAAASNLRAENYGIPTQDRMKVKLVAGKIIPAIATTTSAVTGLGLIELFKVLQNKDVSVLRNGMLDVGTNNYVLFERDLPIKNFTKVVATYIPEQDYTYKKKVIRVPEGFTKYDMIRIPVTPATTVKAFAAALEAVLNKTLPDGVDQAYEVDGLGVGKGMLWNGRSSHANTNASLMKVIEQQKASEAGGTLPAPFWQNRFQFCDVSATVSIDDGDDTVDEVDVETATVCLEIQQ
EXPERIMENTAL_PROTOCOL: Leishmania donovani Ubiquitin Activating Enzyme (LdE1)
Assay type: functional
Set-up: scale not given: direction of the effect not stated beside the values
SETTINGS: 30 µM
Entries with a potency or affinity are not part of this list.
Expressed in %, but write only the number.

What measured Percent Effect goes with Cc1nc(C)n(C2CCCN(C(=O)c3ccc4c(c3)COC4)C2)n1 (stereo not given) ?
13.5

Moving on to the next molecule: CCn1nccc1CNC(=O)NC1CCCCC1
7.79

Moving on to the next molecule: Cc1cnc(CN(Cc2ccccc2)CC(O)c2cccs2)cn1 (stereo not given)
5.41

Moving on to the next molecule: CC(NC(=O)NCCCc1n[nH]c(N)c1C#N)c1ccccc1 (stereo not given)
22.8

Moving on to the next molecule: CC(C)(O)C1CCN(C(=O)Nc2nc(-c3ccccc3)ns2)CC1
2.7

Moving on to the next molecule: CCOc1nnc(CN(C)C2CCCN(c3cccnn3)C2)s1 (stereo not given)
10.5

Moving on to the next molecule: Cc1cccc(C(=O)NC2CCN(c3cnn(C)c3)C2=O)n1 (stereo not given)
16.2

Moving on to the next molecule: COc1cc(CC(O)CO)c(OC)c2c1OCO2 (stereo not given)
14.7

Moving on to the next molecule: Cc1cnn(CC(C)NCc2nc(-c3cccnc3)no2)c1 (stereo not given)
-1.39

Moving on to the next molecule: O=C(NCCNc1ncccn1)C1CCN(c2ncccn2)CC1
10.8

Moving on to the next molecule: COc1cccc(C(=O)Nc2cc(CC(C)C)nn2C)c1
-5.2

Moving on to the next molecule: Cc1nc(C)n(CC2CCCN(CCc3ccccn3)C2)n1 (stereo not given)
13.9

Moving on to the next molecule: O=C(c1ccc[nH]1)N1CCCC2(CCN(c3ccsc3)C2=O)C1 (stereo not given)
-2.6

Moving on to the next molecule: O=C(c1ccc(Cl)o1)N1CCCN(Cc2cscn2)CC1
15.6

Moving on to the next molecule: O=C(Cn1nc2c(cc1=O)CSCC2)NC(Cc1ccccc1)C(=O)O (stereo not given)
20

Moving on to the next molecule: COc1cccc(COCC(=O)N2CCCC(c3nncn3C)C2)c1 (stereo not given)
13.5

Moving on to the next molecule: CCN(CC(=O)NC)S(=O)(=O)N1CCCCCC1
10.8

Moving on to the next molecule: Cn1cc(CN2CCc3nc(-c4ccccn4)nc(O)c3C2)cn1
2.67

Moving on to the next molecule: Cc1cccc(C(=O)Nc2ccc(OC3CCN(C)CC3)cc2)c1
7.79

Moving on to the next molecule: NC(=O)c1ccc(N2CCCCC2)c(NC(=O)c2cncc(Br)c2)c1
5.2

Moving on to the next molecule: Cc1ccc(C(=O)Nc2cc(C(C)C)n[nH]2)cn1
5.2

Moving on to the next molecule: CSc1ncccc1C(=O)N1C[C@H]2CC[C@@H]1CN(c1cnccn1)C2
7.79

Moving on to the next molecule: CC(=O)c1cc(CC(=O)NCc2c(F)cccc2F)cs1
5.41

Moving on to the next molecule: Fc1ccc(-c2nnc(CN3CCOC(Cn4cncn4)C3)o2)cc1 (stereo not given)
0

Moving on to the next molecule: CCC(C)NC(=O)Cc1c(C)nc2c(c1C)c(=O)[nH]n2C (stereo not given)
13

Origin of values: ChEMBL document CHEMBL3988442
